Data provenance is PubChem BioAssay AID1851.

- SYSTEM_NAME: Cytochrome P450 2D6 (Homo sapiens)
- ASSAY_TEXT: Cytochrome panel assay with activity outcomes
- CONDITION_CONTEXT: recombinant CYP, pro-luciferin dealkylation, luminescence, p450-cyp2d6; series mostly up to 57.1 µM
About 2,600 (16%) of roughly 16,000 compounds were called active. Inconclusive results (about 20%) are left out. The call rests on the fitted dose curve; in most records, active means well fitted curve in the direction sought with a large enough effect; inconclusive means small, poorly fitted or top-dose-only effect, or effect the other way; inactive means no such curve, though single readings can be large or run the other way. These entries were drawn from the full list.
Log the outcome using a class from active, inactive

Input line: What was the test verdict on `O=S(=O)(O)c1nc2ccccc2n1Cc1ccccc1` ?
Output line: inactive

Input line: Try this compound too: O=C1CCCN1CC(CN1CCOCC1)Sc1nnnn1-c1ccccc1 (stereo unspecified)
Output line: inactive

Input line: Try this compound too: `CCCNC(=O)N1CCC(C(=O)c2ccc(F)cc2)CC1`
Output line: inactive

Input line: Try this compound too: `Nc1ncnc2c1cnn2-c1ccccc1`
Output line: inactive

Input line: Try this compound too: `Cc1ccccc1Cn1cc(NC(=O)CSc2nc3c(c(C(F)(F)F)n2)CCc2ccccc2-3)cn1`
Output line: inactive

Input line: Try this compound too: COC(=O)NCC(c1cccnc1)N1CCN(c2ccccc2OC)CC1 (stereo unspecified)
Output line: inactive

Input line: Try this compound too: `NC(=O)C1CCN(C(=O)OCc2ccccc2)CC1`
Output line: inactive

Input line: Try this compound too: `O=C(c1ccc(F)cc1)C1CCN(CCCCc2ccccc2)CC1`
Output line: active

Input line: Try this compound too: CC(C)c1ccc(C(=O)CC2(O)C(=O)N(CN3CCOCC3)c3ccccc32)cc1 (stereo unspecified)
Output line: inactive

Input line: Try this compound too: `CC(C)(C)S(=O)(=O)c1cnc2c(-c3ccc(F)cc3)cnn2c1N`
Output line: inactive

Input line: Try this compound too: `COC(=O)[C@@H](NC(=O)Nc1ccc(C(C)=O)cc1)C(C)C`
Output line: inactive

###

- SYSTEM_NAME: Cytochrome P450 2D6 (Homo sapiens) (UniProt P10635)
- Sequence (P10635 whole entry, looked up): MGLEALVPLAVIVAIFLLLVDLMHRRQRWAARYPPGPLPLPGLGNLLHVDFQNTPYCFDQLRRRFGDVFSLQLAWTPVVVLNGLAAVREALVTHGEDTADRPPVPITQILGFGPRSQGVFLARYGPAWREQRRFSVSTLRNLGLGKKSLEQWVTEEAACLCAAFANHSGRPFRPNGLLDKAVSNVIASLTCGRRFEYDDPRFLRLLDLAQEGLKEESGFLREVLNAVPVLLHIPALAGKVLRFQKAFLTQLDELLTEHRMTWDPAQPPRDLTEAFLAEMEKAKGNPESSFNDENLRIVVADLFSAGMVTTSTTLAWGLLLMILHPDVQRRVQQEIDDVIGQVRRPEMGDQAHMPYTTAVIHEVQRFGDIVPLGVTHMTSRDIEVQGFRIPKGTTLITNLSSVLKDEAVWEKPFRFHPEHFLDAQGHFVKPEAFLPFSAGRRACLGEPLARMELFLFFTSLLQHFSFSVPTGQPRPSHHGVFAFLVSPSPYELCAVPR
- ASSAY_TEXT: Cytochrome panel assay with activity outcomes
- CONDITION_CONTEXT: recombinant CYP, pro-luciferin dealkylation, luminescence, p450-cyp2d6; series mostly up to 57.1 µM
About 2,600 (16%) of roughly 16,000 compounds were called active. Not shown: some 20% with an inconclusive outcome. These entries were drawn from the full list.
RESULT_TYPE: AC50

Take a look at these entries with their results.
[
  {
    "COMPOUND": "Cc1cc(C)n2nc(SCC(=O)N/N=C/c3ccccc3F)nc2n1",
    "RESULT_TYPE": "AC50",
    "RESULT_VALUE": "inactive"
  },
  {
    "COMPOUND": "COC(=O)Cc1c(C)nc2nc(NCc3ccccc3OC)[nH]n2c1=O",
    "RESULT_TYPE": "AC50",
    "RESULT_VALUE": "inactive"
  },
  {
    "COMPOUND": "COC(=O)C1=C(C)NC(C)=C(C(=O)OC(C)C)[C@H]1c1cccc2nonc12",
    "RESULT_TYPE": "AC50",
    "RESULT_VALUE": "inactive"
  },
  {
    "COMPOUND": "CC(C)OCCCN1C(=O)c2ccccc2C1C(=O)NC1CCCCC1 (configuration not stated)",
    "RESULT_TYPE": "AC50",
    "RESULT_VALUE": "inactive"
  },
  {
    "COMPOUND": "Cc1nnc(C)n1/N=C/c1ccc(-c2ccccc2)cc1",
    "RESULT_TYPE": "AC50",
    "RESULT_VALUE": "inactive"
  }
]

Input line: AC50 for `Cc1cnc(CNc2ccnc(-c3ccc(N(C)C)cc3)n2)cn1` ?
Output line: inactive

Input line: Try this compound too: `Clc1ccccc1-c1ccc2ncnc(NCc3cccnc3)c2c1`
Output line: 6.31 µM (active)

Input line: Try this compound too: C[n+]1cn(CC(O)COCc2ccccc2)c2ccccc21 (configuration not stated)
Output line: 1.12 µM (active)

Input line: Try this compound too: `NC(=O)C(=O)O`
Output line: inactive

Input line: Try this compound too: `COc1ccccc1CNC(=O)CSc1nc2nc(C)cc(C)n2n1`
Output line: 15.8 µM (active)

Input line: Try this compound too: CC1(C)OC(=O)N(Cc2ccco2)C1(C)O (configuration not stated)
Output line: inactive

Input line: Try this compound too: `Cc1sc2ncn(CC(=O)NCCCC(=O)N3CCN(c4ncccn4)CC3)c(=O)c2c1C`
Output line: inactive

###

- SYSTEM_NAME: Cytochrome P450 2D6 (Homo sapiens) (UniProt P10635)
- ASSAY_TEXT: Cytochrome panel assay with activity outcomes
- CONDITION_CONTEXT: recombinant CYP, pro-luciferin dealkylation, luminescence, p450-cyp2d6; series mostly up to 57.1 µM
About 2,600 (16%) of roughly 16,000 compounds were called active. About 20% were inconclusive and are not listed. Calls come from the whole dose curve; as a rule, active = well fitted curve in the direction sought with a large enough effect; inconclusive = small, poorly fitted or top-dose-only effect, or effect the other way; inactive = no such curve, though single readings can be large or run the other way. Not all results are given here.
Log the outcome using a class from t = active, f = inactive

Input line: What was the test verdict on `CCCCC(=O)Nc1nnc(SCC(=O)NC2CCCC2)s1` ?
Output line: f

Input line: Try this compound too: COc1ccc(C2C(C#N)=C(N)N(Nc3ccccc3)C3=C2C(=O)CC(C)(C)C3)cc1C (centres undefined)
Output line: f

Input line: Try this compound too: `Cc1ccc(NC(=S)N2CCN(CCN3C(=O)c4cccc5cccc(c45)C3=O)CC2)cc1`
Output line: f

Input line: Try this compound too: `CC(=O)COc1ccc2c(C)c(C)c(=O)oc2c1`
Output line: f

Input line: Try this compound too: `Nc1nc2c(ncn2COC(CO)CO)c(=O)[nH]1`
Output line: f

Input line: Try this compound too: `CCOc1cc(C)ccc1OCc1nnc(SCC(=O)c2cccc([N+](=O)[O-])c2)n1C`
Output line: f

Input line: Try this compound too: `CC(C)CN1CCCC2(CCN(C(=O)c3cccn3C)CC2)C1`
Output line: f

Input line: Try this compound too: `COc1ccc2c(C)cc(N3CCOCC3)nc2c1`
Output line: f

Input line: Try this compound too: CCCC/C=C/C(NC(=O)c1ccccc1)c1ccccc1 (centres undefined)
Output line: f

Input line: Try this compound too: `COc1ccc(N2CCc3c(C)nc4c(OC)cc(OC)cc4c32)c(OC)c1`
Output line: t

Input line: Try this compound too: `CSc1nc(C)c2c(n1)N(c1ccc(C(F)(F)F)cc1)CC2`
Output line: f

Input line: Try this compound too: `Cn1cccc1C(=O)N1CCC2(CCCN(Cc3ccccc3)C2)CC1`
Output line: t

Input line: Try this compound too: `COc1cc(OC)c2nc(C)c3c(c2c1)N(c1ccc(O)cc1)CC3`
Output line: t

Input line: Try this compound too: O=C(Nc1ncc(Cc2ccccc2)s1)C1COc2ccccc2O1 (centres undefined)
Output line: f

Input line: Try this compound too: `O=C(CCN1C(=O)c2cccc3cccc(c23)C1=O)N1CCN(Cc2ccc3c(c2)OCO3)CC1`
Output line: t

Input line: Try this compound too: `COc1cc(Cn2cnnn2)ccc1O`
Output line: f

Input line: Try this compound too: `CSc1nc(C)c2c(n1)N(c1ccc(C(C)C)cc1)CC2`
Output line: f

Input line: Try this compound too: COc1ccc(N2C(=O)CSC2c2cccc(F)c2)c(OC)c1 (centres undefined)
Output line: f

Input line: Try this compound too: `CCN1CCc2nc(NC(=O)c3ccc4c(c3)OCCO4)sc2C1`
Output line: f

Input line: Try this compound too: `O=C(Cc1ccc(Cl)cc1)N1CCN(C(=O)c2ccco2)CC1`
Output line: f

Input line: Try this compound too: `Cc1cc(C(F)(F)F)nn1CC(=O)Nc1cccnc1`
Output line: t

Input line: Try this compound too: `CCCC(CCC)C(=O)NNc1cc(=O)c2c(=O)n(C)c(=O)n(C)c2[nH]1`
Output line: f

Input line: Try this compound too: `CC(C)NC(=O)CC(=O)N/N=C/c1ccc(F)cc1`
Output line: f

Input line: Try this compound too: `COCCn1c(=O)cnc2cnc(Nc3ccccc3)nc21`
Output line: f

###

- SYSTEM_NAME: Cytochrome P450 2D6 (Homo sapiens) (UniProt P10635)
- ASSAY_TEXT: Cytochrome panel assay with activity outcomes
- CONDITION_CONTEXT: recombinant CYP, pro-luciferin dealkylation, luminescence, p450-cyp2d6; series mostly up to 57.1 µM
About 2,600 (16%) of roughly 16,000 compounds were called active. Inconclusive results (about 20%) are left out. Calls come from the whole dose curve; as a rule, active = well fitted curve in the direction sought with a large enough effect; inconclusive = small, poorly fitted or top-dose-only effect, or effect the other way; inactive = no such curve, though single readings can be large or run the other way. These entries were drawn from the full list.
Log the outcome using a class from label 1 = active, label 0 = inactive

Input line: What was the test verdict on `COc1ccccc1CNc1nc(-c2ccc(N(C)C)cc2)nc2ccccc12` ?
Output line: label 1

Input line: Try this compound too: CC(Cc1ccccc1)N/C=C1\CC(=O)NC1=O (stereo unspecified)
Output line: label 0

Input line: Try this compound too: `CNc1nc(-c2ccc(N(C)C)cc2)nc2ccccc12`
Output line: label 1

Input line: Try this compound too: CCCCCCCCN1C(=O)N(C)C(N(O)C(=O)NC)C1(C)C (stereo unspecified)
Output line: label 0

Input line: Try this compound too: `CCc1cccc2c3c([nH]c12)[C@@](CC)(CC(=O)O)OCC3`
Output line: label 0

Input line: Try this compound too: `O=C(NN1C(=O)c2ccccc2C1=O)C1CCCCC1`
Output line: label 0

Input line: Try this compound too: `CCOc1nc(N2CCCCC2)nc(-n2cc(-c3ccccc3)nn2)n1`
Output line: label 0

Input line: Try this compound too: `Cc1cnc(CNc2nc(-c3ccc4c(c3)OCO4)nc3ccccc23)cn1`
Output line: label 1

Input line: Try this compound too: `Cc1cc2ccccc2n1CCNC(=O)C1CCCC1`
Output line: label 1

Input line: Try this compound too: `COCC(=O)N1CCC2(CC1)CN(C(=O)Nc1cccc(F)c1)C2`
Output line: label 0

Input line: Try this compound too: `COc1ccc(-n2c(=O)c(-c3ccc(F)c(F)c3)nc3cncnc32)cc1`
Output line: label 0

Input line: Try this compound too: CC(C)COP(=O)(OCC(C)C)C(O)c1ccccc1F (stereo unspecified)
Output line: label 0

Input line: Try this compound too: `O=C(Nc1cccc2ccccc12)/C(=C/c1ccc([N+](=O)[O-])cc1)NC(=O)c1ccccc1`
Output line: label 0

Input line: Try this compound too: `Cc1ccc(S(=O)(=O)NCCn2c(C)cc3ccccc32)cc1`
Output line: label 1

Input line: Try this compound too: `Cc1cccc(C(=O)c2ccccc2C(=O)O)c1O`
Output line: label 0

Input line: Try this compound too: `Cc1ccc(C)n1NC(=O)c1ccccc1`
Output line: label 0

Input line: Try this compound too: `COCC(=O)N1CCC2(CCCN(C(=O)Nc3ccccc3)C2)CC1`
Output line: label 0

Input line: Try this compound too: `CCCC(=O)Nc1c(C)n[nH]c1C`
Output line: label 0

Input line: Try this compound too: `Cc1cc2ccccc2n1CCNC(=O)c1ccccc1`
Output line: label 1

Input line: Try this compound too: `O=C1CC(=Nc2ccccc2)NN1c1ccccc1`
Output line: label 0

Input line: Try this compound too: `c1csc(CNc2nc(-c3ccc4c(c3)OCO4)nc3ccccc23)c1`
Output line: label 1

Input line: Try this compound too: `CCc1cc2c(Sc3nc4ccccc4s3)ncnc2s1`
Output line: label 0

Input line: Try this compound too: `COc1cccc(Cn2c(=O)c(-c3cn(C)c4ccccc34)nc3cnc(OC)nc32)c1`
Output line: label 0

Input line: Try this compound too: C[C@@]1(C(NC(=O)c2ccc(-c3ccccc3)cc2)c2ccc(Cl)cc2)C[C@H]1C1CCCCC1 (stereo partly specified)
Output line: label 0

Input line: Try this compound too: `Nc1nc2ncc(CNc3ccc(C(=O)N[C@@H](CCC(=O)O)C(=O)O)cc3)nc2c(=O)[nH]1`
Output line: label 0

Input line: Try this compound too: `COCC(=O)N1CCC2(CC1)CCN(c1cccc(-c3ccccc3)c1)CC2`
Output line: label 0

Input line: Try this compound too: `O=C(OCC(=O)c1ccc([N+](=O)[O-])cc1)/C(=C\c1ccc(Cl)cc1)NC(=O)c1ccccc1`
Output line: label 1

Input line: Try this compound too: `COCC(=O)N1CCC2(CC1)CCN(C(c1ccccc1)c1ccccc1)CC2`
Output line: label 1

Input line: Try this compound too: `Cc1nc2ccccc2n1CC(=O)N/N=C\c1ccccn1`
Output line: label 0

Input line: Try this compound too: `CC(C)c1nnc(-c2ccc(Cl)cc2)c(N(C)C)n1`
Output line: label 0

Input line: Try this compound too: `Cc1ccc(S(=O)(=O)NCCSc2nnnn2C)cc1`
Output line: label 0

Input line: Try this compound too: O=C1NC(c2ccccc2)=NC1(NS(=O)(=O)c1ccccc1)C(F)(F)F (stereo unspecified)
Output line: label 0

Input line: Try this compound too: `CCn1c(-c2ccc(N(C)C)cc2)nc2ccccc21`
Output line: label 0

Input line: Try this compound too: CCC[C@@H]1C[C@@]1(CCC)C(NC(=O)c1ccco1)c1ccc(Cl)cc1 (stereo partly specified)
Output line: label 1

Input line: Try this compound too: CCC[C@@H]1C[C@@]1(CCC)C(NC(=O)c1ccccc1)c1cccc(Cl)c1 (stereo partly specified)
Output line: label 1

Input line: Try this compound too: `CCc1cc2c(NCc3ccco3)ncnc2s1`
Output line: label 1

Input line: Try this compound too: `CCCSc1cc(N2CCCC2)nc(-c2ccccc2)n1`
Output line: label 0

Input line: Try this compound too: C[C@@]1(C(NC(=O)Cc2ccccc2)c2ccc(-c3ccccc3)cc2)C[C@H]1C1CCCCC1 (stereo partly specified)
Output line: label 0

Input line: Try this compound too: `COCC(=O)N1CCC2(CC1)CN(C(=O)Nc1ccc(OC)cc1)C2`
Output line: label 0

Input line: Try this compound too: COC(=O)c1ccc(C(NC(=O)c2ccccc2)[C@]2(C)C[C@H]2C2CCCCC2)cc1 (stereo partly specified)
Output line: label 0

Input line: Try this compound too: `COc1ncc2nc(C)c(=O)n(CCc3ccccc3)c2n1`
Output line: label 0

Input line: Try this compound too: `COc1ccc(-n2c(CNc3ccc(C)cc3)nnc2SCC(=O)Nc2nc(-c3ccccc3)cs2)cc1`
Output line: label 0

Input line: Try this compound too: `CN(C)CCn1c(C(=O)O)cc2ccccc21`
Output line: label 0

Input line: Try this compound too: `COCC(=O)N1CCC[C@@]2(CCN(C(c3ccccc3)c3ccccc3)C2)C1`
Output line: label 1

Input line: Try this compound too: `N[C@H](C(=O)O)[C@H](O)C(=O)O`
Output line: label 0

Input line: Try this compound too: `CCN(CC)C(=O)CCNS(=O)(=O)c1ccc(C)cc1`
Output line: label 0
